Recorded values, source paper PMC4118376.

- assayedTarget: staphylococcal enterotoxin B (Staphylococcus aureus (strain not …, UniProt P01552))
- Sequence (P01552 28-266): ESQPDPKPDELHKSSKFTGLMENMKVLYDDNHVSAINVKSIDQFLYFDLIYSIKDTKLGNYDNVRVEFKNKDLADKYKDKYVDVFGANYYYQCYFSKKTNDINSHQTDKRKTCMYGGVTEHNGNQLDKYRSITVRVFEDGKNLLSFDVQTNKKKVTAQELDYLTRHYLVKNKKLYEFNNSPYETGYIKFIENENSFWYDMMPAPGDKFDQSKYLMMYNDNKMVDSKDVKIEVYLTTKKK
- assayRemarks: SPR
- experimentalConditions: both partners purified
Below, each of the binders is paired with its reported koff value.
The reply should consist of the numeric value with the unit placed after it.

* sdAb B12 (VHH, source: E. coli Rosetta (DE3), periplasm, purified (IMAC, size exclusion chromatography)) VHH: EVQLQASGGGLVQAGGPLRLTCAVSGPTFGSYALGWFRQAPGKEREFVAAVSWSGGDTYADSVKGRFIISRDNAKNTVYLQMNNLEPEDTAVYSCARMQDRYYISKDAKDYGYWGQGTQVTVSS | 0.000321 s⁻¹

Which measured koff value corresponds to sdAb B1 (VHH, source: E. coli Rosetta (DE3), periplasm, purified (IMAC, size exclusion chromatography)) VHH: EVQLQASGGGLVQAGGSLRLTCAVSGPTFGSYALGWFRQAPGKEREFVAAVSWSGGDTYADTAKGRFIISRDNAKNTVYLQMNNLEPEDTAVYSCARMQDRYYISKDAKDYGYWGQGTQVIVSS ?
0.00039 s⁻¹
